Listing of entries alongside the reported KIDNEY_TOTAL.
organism: Rattus norvegicus; assay: Open TG-GATES - Regimen: Single; format: toxicity, organism-based, Sprague-Dawley; parameters: regimen Single, gender Male, age 6 weeks; conditions: in vivo, po, 0 mg/kg, 24 h, tissue Kidney, route gavage, dose level Control
Please reply with the bare figure in g and do not write the unit itself.

Query: Fill in the blank: the reported KIDNEY_TOTAL of O=c1ccc2ccccc2o1 is ____.
Result: 1.8

Query: Fill in the blank: the reported KIDNEY_TOTAL of CN(CCOc1ccc(CC2SC(=O)NC2=O)cc1)c1ccccn1.O=C(O)/C=C\C(=O)O (centres undefined) [ROSIGLITAZONE MALEATE] is ____.
Result: 0.7

Query: Fill in the blank: the reported KIDNEY_TOTAL of CC(=O)[C@@]1(O)CC[C@H]2[C@@H]3C=C(Cl)C4=CC(=O)CC[C@]4(C)[C@H]3CC[C@@]21C is ____.
Result: 2

Note: attention shifts to another entry.
Query: Fill in the blank: the reported KIDNEY_TOTAL of COc1cc2ncnc(Nc3ccc(F)c(Cl)c3)c2cc1OCCCN1CCOCC1 is ____.
Result: 1.9

###

Listing of entries alongside the reported Plat.
organism: Rattus norvegicus; test: Open TG-GATES - Regimen: Daily Repeat; type: toxicity, organism-based, Sprague-Dawley; design: regimen Daily Repeat, gender Male, age 6 weeks; settings: in vivo, po, 100 mg/kg, […], tissue Blood, route gavage, dose level Low, time 14 day
Please reply with the bare figure in x10_4/uL and do not write the unit itself.

Here's what some known entries look like.
Query: Fill in the blank: the reported Plat of CC(=O)[C@@]1(O)CC[C@H]2[C@@H]3C=C(Cl)C4=CC(=O)CC[C@]4(C)[C@H]3CC[C@@]21C [CHLORMADINONE] is ____.
Result: 103.8

Query: Fill in the blank: the reported Plat of CC(S)C(=O)NCC(=O)O (centres undefined) [TIOPRONIN] is ____.
Result: 116.6

Query: Fill in the blank: the reported Plat of O=C(O)c1ccccc1Nc1ccccc1 [FENAMIC ACID] is ____.
Result: 118.3

Note: attention shifts to another entry.
Query: Fill in the blank: the reported Plat of CCCCNC(=O)NS(=O)(=O)c1ccc(C)cc1 [TOLBUTAMIDE] is ____.
Result: 120.7

###

species: Rattus norvegicus; assay: Open TG-GATES - Regimen: Daily Repeat; type: toxicity, organism-based, Sprague-Dawley; design: regimen Daily Repeat, gender Male, age 6 weeks; details: in vivo, po, 300 mg/kg, 72 h, tissue Liver, route gavage, dose level Middle, time 3 day
property_measured: LIVER

Query: Fill in the blank: the reported LIVER of CC(=O)[C@@]1(O)CC[C@H]2[C@@H]3C=C(Cl)C4=CC(=O)CC[C@]4(C)[C@H]3CC[C@@]21C [CHLORMADINONE] is ____.
Result: 11 g

Continuing:
Query: Fill in the blank: the reported LIVER of CCCCNC(=O)NS(=O)(=O)c1ccc(C)cc1 [TOLBUTAMIDE] is ____.
Result: 10.8 g

Query: Fill in the blank: the reported LIVER of CC(S)C(=O)NCC(=O)O (centres undefined) [TIOPRONIN] is ____.
Result: 10.7 g

Query: Fill in the blank: the reported LIVER of O=C(O)c1ccccc1Nc1ccccc1 [FENAMIC ACID] is ____.
Result: 12 g
